Tested on: NCI-H2141 (Small Cell Lung Carcinoma)
Test: combination Emax (second highest fraction inhibited in the dose matrix, 72 h); higher = more inhibition; extreme values may be limits of the assay
Measure: combination Emax
Give the value as a plain number.

Query block: Identify measured combination Emax corresponding to Cc1c2c(nn1C)CSCc1cc(n(C)n1)CSc1cc(c3ccccc3c1)OCCCc1c(C(=O)O)n(C)c3c-2c(Cl)ccc13 [AZD5991] + CCN(CCO)CCCOc1ccc2c(Nc3cc(CC(=O)Nc4cccc(F)c4)[nH]n3)ncnc2c1 [AZD2811] (first compound max 1 µM, 7x7, partner max 1 µM)
Result block: 0.428

###

Tested on: COLO-824 (Breast Carcinoma)
Test: combination Emax (second highest fraction inhibited in the dose matrix, 72 h); higher = more inhibition; extreme values may be limits of the assay
Measure: combination Emax
Give the value as a plain number.

Look over these answered cases.
COc1cccc2c1C(=O)c1c(O)c3c(c(O)c1C2=O)C[C@@](O)(C(=O)CO)C[C@@H]3O[C@H]1C[C@H](N)[C@H](O)[C@H](C)O1 [Doxorubicin] + Cc1cc2ncnn2cc1Nc1ncc2c(n1)n(C1CCOCC1)c(=O)n2C [AZD7648] (first compound max 1 µM, 7x7, partner max 10 µM)    0.501
C[C@@H]1COCCN1c1cc(C2([S@](C)(=N)=O)CC2)nc(-c2ccnc3[nH]ccc23)n1 [AZD6738] + O=C(c1cc(Cc2n[nH]c(=O)c3ccccc23)ccc1F)N1CCN(C(=O)C2CC2)CC1 [Olaparib] (first compound max 10 µM, 7x7, partner max 10 µM)    0.595
COc1cccc(OCCCN)c1-c1cc(Nc2cnc(C#N)cn2)n[nH]1 [Prexasertib] + CCc1c2c(nc3ccc(O)cc13)-c1cc3c(c(=O)n1C2)COC(=O)[C@]3(O)CC [SN-38] (first compound max 1 µM, 7x7, partner max 0.3 µM)    1

Query block: Under COLO-824 (Breast Carcinoma), report combination Emax for COc1nnc2ccc(N3CCC(c4ccc(OCCN5CCN(C)C(=O)[C@H]5C)cc4)CC3)nn12 [AZD5153] + CCN(CCO)CCCOc1ccc2c(Nc3cc(CC(=O)Nc4cccc(F)c4)[nH]n3)ncnc2c1 [AZD2811] (first compound max 1 µM, 7x7, partner max 1 µM)
Result block: 0.845

###

System: NCI-H2066 (Squamous Cell Lung Carcinoma)
Experiment: Bliss excess, mean over the matrix (fraction); higher = more synergy
Measure: Bliss excess
Give the value as a plain number.

Query block: Identify measured Bliss excess corresponding to CN(CCO)CC[C@H](CSc1ccccc1)Nc1ccc(S(=O)(=O)NC(=O)c2ccc(N3CCC([C@@H](O)c4ccccc4-c4ccc(Cl)cc4)CC3)cc2)cc1S(=O)(=O)C(F)(F)F [AZD4320] + C[C@@H]1COCCN1C2=NC(=NC(=C2)C3(CC3)[S@](=N)(=O)C)C4=C5C=CNC5=NC=C4 [AZD6738] (first compound max 1 µM, 7x7, partner max 10 µM)
Result block: -0.0437

Query block: Identify measured Bliss excess corresponding to CN(CCO)CC[C@H](CSc1ccccc1)Nc1ccc(S(=O)(=O)NC(=O)c2ccc(N3CCC([C@@H](O)c4ccccc4-c4ccc(Cl)cc4)CC3)cc2)cc1S(=O)(=O)C(F)(F)F [AZD4320] + C=CCn1c(=O)c2cnc(Nc3ccc(N4CCN(C)CC4)cc3)nc2n1-c1cccc(C(C)(C)O)n1 [AZD1775] (first compound max 1 µM, partner max 1 µM)
Result block: -0.0534

Query block: Identify measured Bliss excess corresponding to Cc1cc2ncnn2cc1Nc1ncc2c(n1)n(C1CCOCC1)c(=O)n2C [AZD7648] + CN(C)CCCOc1ccc(-c2ccc3ncc4c(c3c2)n(C2CCOCC2)c(=O)n4C)cn1 [AZD0156] (first compound max 10 µM, 7x7, partner max 1 µM)
Result block: -0.026

###

Test system: FU97 (Gastric Carcinoma)
Assay: combination Emax (second highest fraction inhibited in the dose matrix, 72 h); higher = more inhibition; extreme values may be limits of the assay
Quick reference for combination Emax among some compounds
Give the value as a plain number.

Query block: Identify measured combination Emax corresponding to CN(CCO)CC[C@H](CSc1ccccc1)Nc1ccc(S(=O)(=O)NC(=O)c2ccc(N3CCC([C@@H](O)c4ccccc4-c4ccc(Cl)cc4)CC3)cc2)cc1S(=O)(=O)C(F)(F)F [AZD4320] + C=CCn1c(=O)c2cnc(Nc3ccc(N4CCN(C)CC4)cc3)nc2n1-c1cccc(C(C)(C)O)n1 [AZD1775] (first compound max 1 µM, partner max 1 µM)
Result block: 0.454

Query block: Identify measured combination Emax corresponding to Cn1cnc2c(F)c(Nc3ccc(Br)cc3Cl)c(C(=O)NOCCO)cc21 [Selumetinib] + C[C@@H]1COCCN1C2=NC(=NC(=C2)C3(CC3)[S@](=N)(=O)C)C4=C5C=CNC5=NC=C4 [AZD6738] (first compound max 10 µM, 7x7, partner max 10 µM)
Result block: 0.333

Query block: Identify measured combination Emax corresponding to C[C@@H](c1ccc2nccn2c1)n1nnc2ncc(-c3cnn(C)c3)nc21 [Savolitinib] + Cc1c2c(nn1C)CSCc1cc(n(C)n1)CSc1cc(c3ccccc3c1)OCCCc1c(C(=O)O)n(C)c3c-2c(Cl)ccc13 [AZD5991] (first compound max 1 µM, 7x7, partner max 1 µM)
Result block: 0.164

Query block: Identify measured combination Emax corresponding to C[C@@H]1COCCN1c1cc(C2([S@](C)(=N)=O)CC2)nc(-c2ccnc3[nH]ccc23)n1 [AZD6738] + O=C(c1cc(Cc2n[nH]c(=O)c3ccccc23)ccc1F)N1CCN(C(=O)C2CC2)CC1 [Olaparib] (first compound max 10 µM, 7x7, partner max 10 µM)
Result block: 0.332

Query block: Identify measured combination Emax corresponding to CC1(C)CCC(CN2CCN(c3ccc(C(=O)NS(=O)(=O)c4ccc(NCC5CCOCC5)c([N+](=O)[O-])c4)c(Oc4cnc5[nH]ccc5c4)c3)CC2)=C(c2ccc(Cl)cc2)C1 [Venetoclax] + CS(=O)(=O)CCNCc1ccc(-c2ccc3ncnc(Nc4ccc(OCc5cccc(F)c5)c(Cl)c4)c3c2)o1 [Lapatinib] (first compound max 1 µM, 7x7, partner max 10 µM)
Result block: 0.813

Query block: Identify measured combination Emax corresponding to C[C@@H](Oc1cc(-c2cnn(C3CCNCC3)c2)cnc1N)c1c(Cl)ccc(F)c1Cl [Crizotinib] + CC1=C(C(=CC=C1)Cl)NC(=O)C2=CN=C(S2)NC3=CC(=NC(=N3)C)N4CCN(CC4)CCO [Dasatinib] (first compound max 10 µM, 7x7, partner max 2 µM)
Result block: 0.446

Query block: Identify measured combination Emax corresponding to Cn1cnc2c(F)c(Nc3ccc(Br)cc3Cl)c(C(=O)NOCCO)cc21 [Selumetinib] + CC(C)n1c(=O)n(C)c2cnc3cc(F)c(-c4ccc(OCCCN5CCCCC5)nc4)cc3c21 [AZD1390] (first compound max 10 µM, 7x7, partner max 0.3 µM)
Result block: 0.273

Query block: Identify measured combination Emax corresponding to NC1(C(=O)N[C@@H](CCO)c2ccc(Cl)cc2)CCN(c2ncnc3[nH]ccc23)CC1 [Capivasertib] + COc1nnc2ccc(N3CCC(c4ccc(OCCN5CCN(C)C(=O)[C@H]5C)cc4)CC3)nn12 [AZD5153] (first compound max 10 µM, 7x7, partner max 1 µM)
Result block: 0.821

###

Test system: COLO-320-HSR (Colorectal Carcinoma)
Experiment: Bliss excess, mean over the matrix (fraction); higher = more synergy
Measure: Bliss excess

COc1nnc2ccc(N3CCC(c4ccc(OCCN5CCN(C)C(=O)[C@H]5C)cc4)CC3)nn12 [AZD5153] + CCN(CCO)CCCOc1ccc2c(Nc3cc(CC(=O)Nc4cccc(F)c4)[nH]n3)ncnc2c1 [AZD2811] (first compound max 1 µM, 7x7, partner max 1 µM)    -0.0417
CS(=O)(=O)CCNCc1ccc(-c2ccc3ncnc(Nc4ccc(OCc5cccc(F)c5)c(Cl)c4)c3c2)o1 [Lapatinib] + Cn1cnc2c(F)c(Nc3ccc(Br)cc3Cl)c(C(=O)NOCCO)cc21 [Selumetinib] (first compound max 10 µM, 7x7, partner max 10 µM)    0.0181
C[C@@H](c1ccc2nccn2c1)n1nnc2ncc(-c3cnn(C)c3)nc21 [Savolitinib] + CC1(C)CCC(CN2CCN(c3ccc(C(=O)NS(=O)(=O)c4ccc(NCC5CCOCC5)c([N+](=O)[O-])c4)c(Oc4cnc5[nH]ccc5c4)c3)CC2)=C(c2ccc(Cl)cc2)C1 [Venetoclax] (first compound max 1 µM, 7x7, partner max 1 µM)    -0.0223
Cc1nc(Nc2ncc(C(=O)Nc3c(C)cccc3Cl)s2)cc(N2CCN(CCO)CC2)n1 [Dasatinib] + CC(=O)Nc1cccc(-n2c(=O)n(C3CC3)c(=O)c3c(Nc4ccc(I)cc4F)n(C)c(=O)c(C)c32)c1 [Trametinib] (first compound max 2 µM, 7x7, partner max 1 µM)    -0.0492
NC1(C(=O)N[C@@H](CCO)c2ccc(Cl)cc2)CCN(c2ncnc3[nH]ccc23)CC1 [Capivasertib] + C[C@@H]1COCCN1C2=NC(=NC(=C2)C3(CC3)[S@](=N)(=O)C)C4=C5C=CNC5=NC=C4 [AZD6738] (first compound max 10 µM, 7x7, partner max 10 µM)    -0.0883

Query block: Under COLO-320-HSR (Colorectal Carcinoma), report Bliss excess for NC1(C(=O)N[C@@H](CCO)c2ccc(Cl)cc2)CCN(c2ncnc3[nH]ccc23)CC1 [Capivasertib] + CC(=O)c1c(C)c2cnc(Nc3ccc(N4CCNCC4)cn3)nc2n(C2CCCC2)c1=O [Palbociclib] (first compound max 10 µM, 7x7, partner max 10 µM)
Result block: -0.0013

Query block: Under COLO-320-HSR (Colorectal Carcinoma), report Bliss excess for CCN(CCO)CCCOc1ccc2c(Nc3cc(CC(=O)Nc4cccc(F)c4)[nH]n3)ncnc2c1 [AZD2811] + O=C(c1cc(Cc2n[nH]c(=O)c3ccccc23)ccc1F)N1CCN(C(=O)C2CC2)CC1 [Olaparib] (first compound max 1 µM, 7x7, partner max 10 µM)
Result block: -0.0179
